Assignment: determine reported Kd for the given variants.
B1: scFv; the commonest letter at each place (parent)
chain 1: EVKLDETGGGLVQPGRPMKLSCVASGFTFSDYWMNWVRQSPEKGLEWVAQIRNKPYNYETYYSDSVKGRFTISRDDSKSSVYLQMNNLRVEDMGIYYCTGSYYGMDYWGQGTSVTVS
chain 2: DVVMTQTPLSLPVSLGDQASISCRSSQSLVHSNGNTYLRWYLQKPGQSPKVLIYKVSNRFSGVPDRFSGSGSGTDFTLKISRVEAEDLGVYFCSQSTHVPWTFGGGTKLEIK

variants of: B1; assay: Kd (Tite-Seq); settings: with fluorescein; format: scFv 4-4-20, heavy + light

// recorded Kd for chain 1 Y102R : 0.0252 µM

Measured Kd, chain 1 D106Y G109K : ≥ 10 µM

Looking up chain 1 T28Y S30L , I found its Kd recorded as 0.00708 µM

# Kd of chain 1 Y32H V37Q = ≥ 10 µM

Entry chain 1 Y103I M105E ; Kd = ≥ 10 µM

chain 1 G104C Y107V yielded Kd of ≥ 10 µM

Short answer for chain 1 M105N Y107I : Kd was ≥ 10 µM

Documented Kd of chain 1 T28H S30N Y32M : 0.0692 µM

Lab note: measured Kd of chain 1 M34P V37T was ≥ 10 µM

// Kd value for chain 1 Y32H V37T : ≥ 10 µM

What the record says about chain 1 M34T V37C : Kd is 0.02 µM

Entry chain 1 Y107K — recorded Kd = ≥ 10 µM

The variant chain 1 S30I W36P V37E showed Kd equal to ≥ 10 µM

Documented Kd of chain 1 M34S W36K : ≥ 10 µM

So, chain 1 W108E G109P ? Its Kd was ≥ 10 µM

The value of Kd measured for the variant chain 1 D31L V37F turned out to be 0.0507 µM

// Kd lookup, variant = chain 1 S101M Y107H , result: ≥ 10 µM

For this variant ( chain 1 W33D M34W ), measured Kd is ≥ 10 µM

# variant chain 1 W33E N35G ; its Kd = ≥ 10 µM

Reported Kd of chain 1 W36A : ≥ 10 µM

Note to self: Kd recorded for chain 1 Y103E W108C was 0.0221 µM

// field: Kd; key: chain 1 T28F N35C ; value = ≥ 10 µM

# Kd (variant: chain 1 Y32I M34S ) is ≥ 10 µM

Consider chain 1 Y102S . Its measured Kd is 0.000869 µM

Lookup result for chain 1 N35E V37Q ; measured Kd: ≥ 10 µM

Sure, the documented Kd for chain 1 S101L G104I is ≥ 10 µM

Lookup result for chain 1 D106C W108K ; measured Kd: ≥ 10 µM

Lookup result for chain 1 S101E G104S ; measured Kd: ≥ 10 µM

Kd recorded for this variant, chain 1 G100I Y107D , is ≥ 10 µM

chain 1 S30N W33M has a reported Kd of ≥ 10 µM

Kd reading for chain 1 W33Q W36K : ≥ 10 µM

What the record says about chain 1 Y32P : Kd is ≥ 10 µM

For record chain 1 S101N G109N the listed Kd is ≥ 10 µM

The variant identified as chain 1 G100H S101E registered its Kd at ≥ 10 µM

Entry chain 1 G100C S101C — recorded Kd = ≥ 10 µM

What the record says about chain 1 Y107C W108V : Kd is 0.00468 µM

The reported Kd of the variant chain 1 F29R V37S was ≥ 10 µM

# variant chain 1 S101M ; its Kd = ≥ 10 µM

Sample chain 1 T28D D31E V37E ; Kd observed: ≥ 10 µM

// Kd value for chain 1 S30W N35I : ≥ 10 µM

Kd reading for chain 1 Y103I G104M : ≥ 10 µM

// sample chain 1 G100R S101H , its Kd was ≥ 10 µM

Kd reading for chain 1 F29A W33N : ≥ 10 µM

# variant chain 1 W33A N35S W36M ; its Kd = ≥ 10 µM

Short answer for chain 1 M34E W36M : Kd was ≥ 10 µM

Given item chain 1 M34G V37R , the value recorded as its Kd is ≥ 10 µM

Kd for chain 1 F29G D31R is ≥ 10 µM

The recorded Kd for chain 1 F29N M34H is 1.63 µM

Looking up chain 1 W108S G109N , I found its Kd recorded as ≥ 10 µM

Entry chain 1 Y32W W33P — recorded Kd = ≥ 10 µM

Entry chain 1 Y102E M105P — recorded Kd = ≥ 10 µM

Looking up chain 1 G100C S101A , I found its Kd recorded as 0.00606 µM

Just so you know, measured Kd for chain 1 Y103H Y107Q came out at ≥ 10 µM

For record chain 1 Y103I D106Q the listed Kd is ≥ 10 µM

Kd recorded for this variant, chain 1 Y32G M34P , is ≥ 10 µM

Field Kd (entry chain 1 Y32D W33E ) reads ≥ 10 µM

chain 1 S101N G109D has a reported Kd of ≥ 10 µM

So, chain 1 T28F F29R ? Its Kd was ≥ 10 µM

Sample chain 1 D31L W33D ; Kd observed: ≥ 10 µM

The reported value for chain 1 S30K Y32S M34V in terms of Kd is ≥ 10 µM

So for chain 1 D106L W108M , the logged Kd turned out to be ≥ 10 µM

Lookup result for chain 1 G104Y G109T ; measured Kd: ≥ 10 µM

Record chain 1 N35R W36K , field Kd: ≥ 10 µM

The value of Kd measured for the variant chain 1 Y103E W108R turned out to be ≥ 10 µM

The variant listed as chain 1 S30Q D31H Y32N has a reported Kd of ≥ 10 µM

Input chain 1 F29V W33N . Output Kd: ≥ 10 µM

Note to self: Kd recorded for chain 1 G104Y M105N was ≥ 10 µM

Memo: chain 1 G100W G104L W108M , reported Kd: ≥ 10 µM

What the record says about chain 1 G109I : Kd is ≥ 10 µM

// sample chain 1 M105A , its Kd was ≥ 10 µM

Reported Kd for chain 1 S101R G104T was ≥ 10 µM

So, chain 1 Y102V Y107F ? Its Kd was 0.00226 µM

The reported Kd of the variant chain 1 D31K W33R V37C was ≥ 10 µM

# variant chain 1 G104K D106H ; its Kd = ≥ 10 µM

Lab note: measured Kd of chain 1 W33C M34C W36A was ≥ 10 µM

Reported Kd for chain 1 Y102G M105V was ≥ 10 µM

Entry under test: chain 1 S101E W108K . Its Kd was ≥ 10 µM

Entry chain 1 N35F V37S — recorded Kd = ≥ 10 µM

The reported Kd of the variant chain 1 G104T W108F was ≥ 10 µM

// field: Kd; key: chain 1 Y32S M34S V37M ; value = ≥ 10 µM

Sample chain 1 T28A Y32H ; Kd observed: 0.0318 µM

Per the records, this variant ( chain 1 N35D W36V ) has Kd equal to ≥ 10 µM

Kindly note the recorded Kd for chain 1 G100C D106N , which is 0.00343 µM

Kd reading for chain 1 F29I N35I : ≥ 10 µM

So, chain 1 G104Q D106K ? Its Kd was ≥ 10 µM

Measured Kd of chain 1 T28H V37L : 3.43 µM

Measured Kd of chain 1 G100D G109T : ≥ 10 µM

Noted for chain 1 T28N Y32Q : its Kd reads ≥ 10 µM

For reference, reported Kd for chain 1 T28G F29R Y32K stands at ≥ 10 µM

// Kd value for chain 1 S101N W108P : ≥ 10 µM

For this variant ( chain 1 Y32P V37G ), measured Kd is ≥ 10 µM
